- Test system: HOP-62
- test-summary: NCI tumour cell line growth inhibition, 48 h
Activity calls are given as the source filed them. Cut-off read from the data, not from the text of the source: active = GI50 up to about 1.1 µM and inactive = higher.
quantity-measured: GI50

API: value(readout= GI50, system= HOP-62, query= "COC(=O)CCCc1ccc2c(c1)CCC2" ) > 100 µM (inactive)

Now consider "COc1ccc(/C=N/n2cnc3c(sc(=S)n3-c3ccccc3)c2=O)cc1" . 12.2 µM (inactive)

---

GI50 values, listed per item
- Tested on: SK-MEL-28
- test-summary: NCI tumour cell line growth inhibition, 48 h
The source made the active and inactive calls. Rule as the data show it: active = GI50 up to about 1.1 µM and inactive = higher.

Sample answers from the record:
[
  {
    "compound": "CCOC(=O)C1(F)S(=O)(=O)OCCOS1(=O)=O",
    "result": "> 100 µM (inactive)"
  },
  {
    "compound": "COc1cc(C2SCC(=O)N2NC(=O)c2ccc(NC(C)=O)cc2)cc(OC)c1OC (stereo unspecified)",
    "result": "> 100 µM (inactive)"
  }
]

Look up GI50: "O=C(/C=C/c1ccccc1)CCN1CCN(CCC(=O)/C=C/c2ccccc2)CC1" 14.2 µM (inactive)

Now consider "Brc1ccc2[nH]c3c(C4=NCCC4)nccc3c2c1" . 16.4 µM (inactive)

Now consider CC1=CC(=O)C(C(O)(C(F)(F)F)C(F)(F)F)C(C)(C)C1 (stereo unspecified) . > 10 µM (inactive)

Now consider Cc1ccc(CC(Cc2ccc(C)cc2C(=O)O)C(=O)O)cc1 (stereo unspecified) . > 100 µM (inactive)
